target: UniProtKB P08034; assay: Inhibition of wild type Cx32(E143) (unknown origin) expressed in Xenopus laevis oocytes assessed as at holding potential of -10 mV and stepped in 5 mV test pulses of 5 sec duration at 10 uM measured by Voltage clamp assay relative to control; format: cell-based; details: Oocyte
Sequence (P08034 whole entry): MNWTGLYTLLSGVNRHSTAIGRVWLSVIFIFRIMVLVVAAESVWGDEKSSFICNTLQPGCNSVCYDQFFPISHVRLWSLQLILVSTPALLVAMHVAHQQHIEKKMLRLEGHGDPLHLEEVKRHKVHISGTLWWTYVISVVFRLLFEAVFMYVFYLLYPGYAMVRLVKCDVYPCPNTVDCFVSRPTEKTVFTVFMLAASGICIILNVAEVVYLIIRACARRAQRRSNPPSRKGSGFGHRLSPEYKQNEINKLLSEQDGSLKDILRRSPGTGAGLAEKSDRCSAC
recorded_endpoint: inhibition (%)
Respond numerically; units are % and should not be typed.

                              record_smiles      assay_system  recorded_endpoint  measured_number
0  O=C(O)c1cn(CCCc2ccccc2)c2ccc([N+](=O)[O-])cc12  UniProtKB P08034         inhibition                0
1  O=C(O)c1ccc(Cn2c(C(=O)O)cc3cc(S(=O)(=O)N(Cc4ccccc4)Cc4ccccc4)ccc32)cc1  UniProtKB P08034         inhibition                0

Note inhibition for the compound shown: `NS(=O)(=O)c1ccc2c(c1)cc(C(=O)O)n2Cc1ccccc1` 15

Note inhibition for the compound shown: `O=C(O)c1ccc(CNS(=O)(=O)c2ccc3c(c2)cc(C(=O)O)n3Cc2ccc(C(=O)O)cc2)cc1` 0

Note inhibition for the compound shown: `O=C(O)c1cc2cc(S(=O)(=O)N(Cc3ccccc3)Cc3ccccc3)ccc2n1Cc1ccccc1` 20

###

biological target: UniProt Q99572; assay: Inhibition of human P2X7R expressed in Xenopus laevis oocytes assessed as inhibition of BzATP-induced cell membrane current at 10 uM measured by Whole cell voltage clamp assay relative to control; type: cell-based; conditions: Oocyte
Sequence (Q99572 whole entry): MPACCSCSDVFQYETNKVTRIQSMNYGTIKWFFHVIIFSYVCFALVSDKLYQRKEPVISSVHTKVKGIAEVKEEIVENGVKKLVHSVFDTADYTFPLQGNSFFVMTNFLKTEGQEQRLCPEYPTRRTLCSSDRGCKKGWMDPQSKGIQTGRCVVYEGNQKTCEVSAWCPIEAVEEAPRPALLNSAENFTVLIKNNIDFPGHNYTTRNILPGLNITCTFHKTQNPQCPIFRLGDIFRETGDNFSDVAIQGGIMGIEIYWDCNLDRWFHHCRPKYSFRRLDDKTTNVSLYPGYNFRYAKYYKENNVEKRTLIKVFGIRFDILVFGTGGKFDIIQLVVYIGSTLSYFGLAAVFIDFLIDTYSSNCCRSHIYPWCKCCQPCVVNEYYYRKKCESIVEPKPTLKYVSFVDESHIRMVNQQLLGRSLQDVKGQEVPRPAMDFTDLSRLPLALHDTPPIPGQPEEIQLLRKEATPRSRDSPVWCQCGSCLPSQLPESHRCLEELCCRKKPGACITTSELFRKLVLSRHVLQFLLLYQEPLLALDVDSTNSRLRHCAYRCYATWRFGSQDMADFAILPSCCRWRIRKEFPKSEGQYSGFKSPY
inhibition values, listed per item
Respond numerically; units are % and should not be typed.

Previously resolved entries follow.
                              record_smiles  units_of_measure  measured_number
0  O=C(O)c1ccc(CNS(=O)(=O)c2ccc3c(c2)cc(C(=O)O)n3Cc2ccc(C(=O)O)cc2)cc1                 %                0
1  O=C(O)c1cn(CCCc2ccccc2)c2ccc([N+](=O)[O-])cc12                 %                0
2  O=C(O)c1ccc(Cn2c(C(=O)O)cc3cc(S(=O)(=O)N(Cc4ccccc4)Cc4ccccc4)ccc32)cc1                 %             61.8
3  NS(=O)(=O)c1ccc2c(c1)cc(C(=O)O)n2Cc1ccccc1                 %               15

Find the measured inhibition of `O=C(O)c1cc2cc(S(=O)(=O)N(Cc3ccccc3)Cc3ccccc3)ccc2n1Cc1ccccc1` with UniProt Q99572 as test system. 0

###

target: Pannexin-1 (Mus musculus); experiment: Inhibition of mouse Panx-1 expressed in Xenopus laevis oocytes assessed as inhibition of membrane current cells held at -60 mV and voltage steps to +60 mV in presence of CBX at 50 uM measured by Whole cell voltage clamp assay relative to control; format: cell-based; settings: Oocyte
inhibition values, listed per item
Respond numerically; units are % and should not be typed.

Previously resolved entries follow.
                              record_smiles  measured_number
0  O=C(O)c1ccc(CCn2cc(C(=O)O)c3cc([N+](=O)[O-])ccc32)cc1               73
1  O=C(O)c1ccc(CNS(=O)(=O)c2ccc3c(c2)cc(C(=O)O)n3Cc2ccc(C(=O)O)cc2)cc1              100
2  O=C(O)c1cc2cc(N(Cc3ccccc3)Cc3ccccc3)ccc2n1Cc1ccccc1                0
3  O=C(O)c1cc2cc([N+](=O)[O-])ccc2n1CCCCCc1ccccc1               58
4  O=C(O)c1ccc(Cn2cc(C(=O)O)c3cc([N+](=O)[O-])ccc32)cc1               54

Next, consider the following molecule.
Note inhibition for the molecule shown: `NS(=O)(=O)c1ccc2c(c1)cc(C(=O)O)n2Cc1ccccc1` 29.3

###

biological target: Pannexin-1 (Mus musculus); assay: Inhibition of mouse Panx-1 expressed in Xenopus laevis oocytes assessed as inhibition of membrane current cells held at -60 mV and voltage steps to +60 mV in presence of CBX at 50 uM measured by Whole cell voltage clamp assay relative to control; assay type: cell-based; settings: Oocyte
recorded_endpoint: inhibition (%)
Respond numerically; units are % and should not be typed.

Previously resolved entries follow.
In [3]: df
Out[3]:
                              record_smiles  units_of_measure  measured_number
0  O=C(O)c1cc2cc([N+](=O)[O-])ccc2n1CCc1ccccc1                 %             56.3
1  O=C(O)c1cn(CCCCCc2ccccc2)c2ccc([N+](=O)[O-])cc12                 %             32.3
2  O=C(O)c1ccc(Cn2c(C(=O)O)cc3cc([N+](=O)[O-])ccc32)cc1                 %               61
3  O=C(O)c1cn(Cc2ccccc2)c2ccc([N+](=O)[O-])cc12                 %               65
4  O=C(O)c1cc2cc([N+](=O)[O-])ccc2n1Cc1ccccc1                 %             51.3

Note inhibition for the compound shown: `O=C(O)c1cc2cc([N+](=O)[O-])ccc2n1CCCc1ccccc1` 65.5

Note inhibition for the compound shown: `O=C(O)c1ccc(CCn2c(C(=O)O)cc3cc([N+](=O)[O-])ccc32)cc1` 31.7

Note inhibition for the compound shown: `O=C(O)c1ccc(Cn2c(C(=O)O)cc3cc(S(=O)(=O)N(Cc4ccccc4)Cc4ccccc4)ccc32)cc1` 100

Note inhibition for the compound shown: `O=C(O)c1cc2cc(S(=O)(=O)N(Cc3ccccc3)Cc3ccccc3)ccc2n1Cc1ccccc1` 41

Note inhibition for the compound shown: `O=C(O)c1cc2cc(S(=O)(=O)N(Cc3ccccc3)Cc3ccccc3)ccc2n1CCc1ccccc1` 41.3

###

biological target: Pannexin-1 (Mus musculus); test: Inhibition of mouse Panx-1 expressed in Xenopus laevis oocytes assessed as inhibition of membrane current cells held at -60 mV and voltage steps to +60 mV in presence of CBX at 50 uM measured by Whole cell voltage clamp assay relative to control; format: cell-based; conditions: Oocyte
recorded_endpoint: inhibition (%)
Respond numerically; units are % and should not be typed.

>>> print(df.to_string())
                              record_smiles  recorded_endpoint  measured_number
0  O=C(O)c1cc2cc(S(=O)(=O)NCCc3ccccc3)ccc2n1CCc1ccccc1         inhibition             57.7

Find the measured inhibition of `NS(=O)(=O)c1ccc2c(c1)cc(C(=O)O)n2Cc1ccc(C(=O)O)cc1` with Pannexin-1 (Mus musculus) as test system. 61.7

Find the measured inhibition of `O=C(O)c1cn(CCCc2ccccc2)c2ccc([N+](=O)[O-])cc12` with Pannexin-1 (Mus musculus) as test system. 71

###

pIC50 values, listed per item
molecular target: Pannexin-1 (Mus musculus, UniProt Q9JIP4); experiment: Inhibition of mouse Panx-1 expressed in Xenopus laevis oocytes assessed as inhibition of membrane current cells held at -60 mV and voltage steps to +60 mV in presence of CBX measured by Whole cell voltage clamp assay relative to control
Sequence (Q9JIP4 whole entry): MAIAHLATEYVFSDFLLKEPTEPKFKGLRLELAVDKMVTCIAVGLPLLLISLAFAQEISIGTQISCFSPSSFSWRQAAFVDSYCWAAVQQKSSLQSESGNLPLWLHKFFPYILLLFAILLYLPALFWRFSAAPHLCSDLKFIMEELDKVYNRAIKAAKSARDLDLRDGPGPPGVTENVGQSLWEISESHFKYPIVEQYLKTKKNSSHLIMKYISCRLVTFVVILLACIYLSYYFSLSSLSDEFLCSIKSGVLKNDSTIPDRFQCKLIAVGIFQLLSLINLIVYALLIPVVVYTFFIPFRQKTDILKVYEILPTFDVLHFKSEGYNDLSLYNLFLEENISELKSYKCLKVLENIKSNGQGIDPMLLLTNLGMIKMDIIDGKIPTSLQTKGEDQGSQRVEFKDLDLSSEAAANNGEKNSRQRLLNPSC
In textbook form, pIC50 equals minus log to base ten of the concentration in mol/L.

Previously resolved entries follow.
>>> print(df.to_string())
                                   compound  measured_number
0  O=C(O)c1ccc(CNS(=O)(=O)c2ccc3c(c2)cc(C(=O)O)n3Cc2ccc(C(=O)O)cc2)cc1             6.10
1  O=C(O)c1ccc(Cn2c(C(=O)O)cc3cc(S(=O)(=O)N(Cc4ccccc4)Cc4ccccc4)ccc32)cc1             6.60
2  CCN(Cc1cccc(S(=O)(=O)O)c1)c1ccc(C(=C2C=CC(=[N+](CC)Cc3cccc(S(=O)(=O)O)c3)C=C2)c2ccccc2S(=O)(=O)[O-])cc1             6.57
3  O=C(O)c1cn(CCCc2ccccc2)c2ccc([N+](=O)[O-])cc12             4.91

Note pIC50 for the compound shown: `O=C(O)c1cn(Cc2ccccc2)c2ccc([N+](=O)[O-])cc12` 4.56

Note pIC50 for the compound shown: `O=C(O)c1ccc(Cn2c(C(=O)O)cc3cc([N+](=O)[O-])ccc32)cc1` 5.31

Note pIC50 for the compound shown: `O=C(O)c1cc2cc([N+](=O)[O-])ccc2n1CCCc1ccccc1` 4.64

Note pIC50 for the compound shown: CCCN(CCC)S(=O)(=O)c1ccc(C(=O)O)cc1 [PROBENECID] 3.82

Note pIC50 for the compound shown: `O=C(O)c1cc([N+](=O)[O-])ccc1NCCCc1ccccc1` 4.30
